System: DU-145
Experiment: Compound was evaluated against Human cell line prostate DU-145
Assay type: functional
Task for the reader: assign each of the following molecules its reported GI50.

Param readout= GI50; system= DU-145; entry= `COc1ccc([C@@H](O)[C@H](O)c2cc(OC)c(OC)c(OC)c2)cc1O` ; returns value.
3.5 µg/mL

Another molecule: `COc1ccc([C@H](O)[C@@H](O)c2cc(OC)c(OC)c(OC)c2)cc1O`
2.1 µg/mL

Another molecule: COc1ccc(/C=C\c2cc(OC)c(OC)c(OC)c2)cc1O [COMBRETASTATIN A4]
0.00076 µg/mL

Another molecule: `COc1ccc([C@@H](O)Cc2cc(OC)c(OC)c(OC)c2)cc1O`
7.6 µg/mL

---

Test system: Neisseria gonorrhoeae
Assay: Antimicrobial activity against Neisseria gonorrhoeae
Type: functional
Task for the reader: assign each of the following molecules its reported MIC.
Record the result as number plus unit.

Param readout= MIC; system= Neisseria gonorrhoeae; entry= COc1ccc(/C=C\c2cc(OC)c(OC)c(OC)c2)cc1O [COMBRETASTATIN A4] ; returns value.
50 ug disk-1

Another molecule: `COc1ccc(/C=C\c2cc(OC)c(OC)c(OC)c2)cc1OP(=O)([O-])O.[Na+]`
100 ug disk-1

Another molecule: COc1ccc(/C=C\c2cc(OC)c(OC)c(OC)c2)c(O)c1O [COMBRETASTATIN A-1]
50 ug disk-1

Another molecule: `COc1ccc(CCc2cc(OC)c(OC)c(OC)c2)c(O)c1O`
25 ug disk-1

Data credit: ChEMBL document CHEMBL1132710
